Would you mind telling me the reported pIC50 of each entry?
assayTarget: T1, human IL4 (human, UniProt P05112 25-153, biotinylated in the SPR and competition assays (sites not given))
T1 construct: Peprotech #200-04, mature protein produced in E. coli; also called hIL4; Interleukin 4
T1 sequence: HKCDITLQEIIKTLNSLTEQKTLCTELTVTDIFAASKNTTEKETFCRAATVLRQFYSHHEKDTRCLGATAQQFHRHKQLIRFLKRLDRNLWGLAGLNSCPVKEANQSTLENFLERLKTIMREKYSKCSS
measurementProtocol: Luminex competition, 67 pM biotin-IL4 binding to IL4RA-Fc beads
Answers are plain numbers, as −log10 of the molar value.

[[record]]
binder = "C06_50E5 (designed binder, ankyrin repeat protein; His-tagged, IMAC-purified) DLGKKLLEAARAGQDDEVRILMANGADANATDDWGDTLLHLAATDGHLEIVEVLLKNGADVNAIDAMGMTPLHLAAVYGYLEIVEVLLKNGADVNAMDFSGFTPLHLAAFSGHLEIVEVLLKYGADVNAQDKFGKTAFDISIDNGNEDLAEILQKLN"
measuredendpoint = "pIC50"
recordednumber = 10.83

[[record]]
binder = "C06_13A10 (designed binder, ankyrin repeat protein; His-tagged, IMAC-purified) DLGKKLLEAARAGQDDEVRILMANGADVNVSDRIGNTPLHLAAVYVHLEIVEVLLKNGADVNALDDDGLTPLHLAAADGHLEIVEVLLKHGADVNATDSHVWTPLHLAAFFGHLEIVEVLLKYGADVNAQDKFGKTAFDISIDNGNEDLAEILQKLN"
measuredendpoint = "pIC50"
recordednumber = 10.51

[[record]]
binder = "C06_42A11 (designed binder, ankyrin repeat protein; His-tagged, IMAC-purified) DLGKKLLEAASVGQDDEVHILMANGADVNATDAWGLTPLHLAALLGHLEIVEVLLKHGADVNAHDETGFTPLHLAAVEGHLEIVEVLLKYGADVNASDILGRTPLHLAANFGHLEIVEVLLKHGADVNAQDKFGKTAFDISIDNGNEDLAEILQKLN"
measuredendpoint = "pIC50"
recordednumber = 10.18

[[record]]
binder = "C06_44F6 (designed binder, ankyrin repeat protein; His-tagged, IMAC-purified) DLGKELLEAARAGQDDEVHILMANGADVNALDDSGYTPLHLAAEDGHLEIVEVLLKHGADVNAMDNIGNTSLHLAAFDGHLEIVEVLLKYGADVNAVDLAGVTPLHVAAFYGHLEIVEVLLKHGADVNAQDKFGKTAFDISIDNGNEDLAEILQKLN"
measuredendpoint = "pIC50"
recordednumber = 10.80

[[record]]
binder = "C06_53G6 (designed binder, ankyrin repeat protein; His-tagged, IMAC-purified) NLGKKLLEAARAGQDDEVRILMANGADVNATDDWGDTLLHLAATDGHLEIVEVLLKYGADVNANDAIGDTPLHLAALYGHLEIVEVLLKYGADVNATDLHGFTPLHLAAFWGHLEIVEVLLKHGADVNAQDKFGKTAFDISIDNGNEDLAEILQKLN"
measuredendpoint = "pIC50"
recordednumber = 10.79

[[record]]
binder = "C06_4A7 (designed binder, ankyrin repeat protein; His-tagged, IMAC-purified) DLGKKLLEAARAGQDDEVRILMANGADVNAEDDWGLTPLHLAAMLGHLEIVEVLLKYGADVNAKDDTGFTPLHLAAVEGHLEIVEVLLKYGADVNASDILGRTPLHLAANFGHLEIVEVLLKYGADVNAQDKFGKTAFDISIDNGNEDLAEILQKLN"
measuredendpoint = "pIC50"
recordednumber = 10.35


Turning now to a further record.
binder C06_48F3 (designed binder, ankyrin repeat protein; His-tagged, IMAC-purified) DLGKKLLEAARAGQDDEVRILMANGADVNAFDDSGLTPLHLAADDGHLEIVEVLLKHGADVNAADRMGDTPLHLAAFVGHLEIVEVLLKYGADVNAVDLAGVTPLHVAAFYGHLEIVEVLLKYGADVNAQDKFGKTAFDISIDNGNEDLAEILQKLN , pIC50 observed: 10.71
